system: L02; assay: Cytotoxicity against human LO2 cells assessed as reduction in cell survival after 24 hrs by MTT assay; assay type: cell-based; conditions: L02, 24 h
Field: IC50. Provide a value for each of the compounds that follow.
Reply numerically in mM, unit not repeated.

Enquiry: Look at this compound and give its reported IC50. NC(=S)c1ccc(OC(=O)c2ccccc2Cl)cc1
Return: 1.09

Enquiry: Would you mind doing CC(C(=O)Oc1ccc(C(N)=S)cc1)c1cccc(C(=O)c2ccccc2)c1 (stereo not given) as well?
Return: 1.18

Enquiry: Would you mind doing O=C(/C=C/c1ccccc1)Oc1ccc(-c2cc(=S)ss2)cc1 as well?
Return: 0.536

Enquiry: Would you mind doing O=C(CCCCC1CCSS1)Oc1ccc2ccc(=O)oc2c1 (stereo not given) as well?
Return: 2.54

Enquiry: Would you mind doing CC(=O)Nc1ccc(OC(=O)CCCCC2CCSS2)cc1 (stereo not given) as well?
Return: 1.79

Enquiry: Would you mind doing COc1ccc2c(c1)c(CC(=O)Oc1ccc(-c3cc(=S)ss3)cc1)c(C)n2C(=O)c1ccc(Cl)cc1 as well?
Return: 0.337

Enquiry: Would you mind doing COc1ccc2cc(C(C)C(=O)Oc3ccc(C(N)=S)cc3)ccc2c1 (stereo not given) as well?
Return: 3.61

Enquiry: Would you mind doing CC(C)Cc1ccc(C(C)C(=O)Oc2ccc(C(N)=S)cc2)cc1 (stereo not given) as well?
Return: 0.221

Enquiry: Would you mind doing CC1=C(CC(=O)Oc2ccc(C(N)=S)cc2)c2cc(F)ccc2/C1=C\c1ccc([S+](C)[O-])cc1 (stereo not given) as well?
Return: 1.48

Enquiry: Would you mind doing CC(C(=O)Oc1ccc(-c2cc(=S)ss2)cc1)c1cccc(C(=O)c2ccccc2)c1 (stereo not given) as well?
Return: 0.544

Enquiry: Would you mind doing CC(C)Cc1ccc(C(C)C(=O)Oc2ccc(-c3cc(=S)ss3)cc2)cc1 (stereo not given) as well?
Return: 0.889

Enquiry: Would you mind doing COc1ccc2cc(C(C)C(=O)Oc3ccc(-c4cc(=S)ss4)cc3)ccc2c1 (stereo not given) as well?
Return: 1.04

###

Field: viability at 24 h, up to 100 µM. Provide a value for each of the molecules that follow.
assay: Cytotoxicity against mouse RAW264.7 cells assessed as cell viability at 10 to 100 uM treated for 24 hrs post LPS induction by MTT assay; format: cell-based; conditions: RAW264.7 cells, read-out: Activity

Enquiry: Look at this molecule and give its reported viability at 24 h, up to 100 µM. COc1ccc2cc(C(C)C(=O)Oc3ccc(C(N)=S)cc3)ccc2c1 (stereo not drawn) [ATB-346]
Return: 70 to 110%

Enquiry: Would you mind doing CC(C)Cc1ccc(C(C)C(=O)Oc2ccc(C(N)=S)cc2)cc1 (stereo not drawn) as well?
Return: 70 to 110%

Enquiry: Would you mind doing CC(C)Cc1ccc(C(C)C(=O)Oc2ccc(-c3cc(=S)ss3)cc2)cc1 (stereo not drawn) as well?
Return: 70 to 110%

###

assay: Drug degradation in phosphate buffer assessed as H2S release by measuring test compound half life at 40 uM measured every 5 mins in presence of TECP by UV-Vis spectrometry; type: physicochemical
readout: log10(half-life at 40 µM) (log10 of the value in min)
Scale: decimal log of half-life at 40 µM, half-life at 40 µM in min.

Enquiry: Look at this compound and give its reported log10(half-life at 40 µM). COc1ccc2cc(C(C)C(=O)Oc3ccc(C(N)=S)cc3)ccc2c1 (stereo not given) [ATB-346]
Return: 1.13

Enquiry: Would you mind doing CC1=C(CC(=O)Oc2ccc(C(N)=S)cc2)c2cc(F)ccc2/C1=C\c1ccc([S+](C)[O-])cc1 (stereo not given) as well?
Return: 0.49

Enquiry: Would you mind doing COc1ccc2c(c1)c(CC(=O)Oc1ccc(-c3cc(=S)ss3)cc1)c(C)n2C(=O)c1ccc(Cl)cc1 as well?
Return: 0.26

Enquiry: Would you mind doing NC(=S)c1ccc(OC(=O)c2ccc(Cl)cc2)cc1 as well?
Return: 1.16

Enquiry: Would you mind doing NC(=S)c1ccccc1 as well?
Return: -0.05

Enquiry: Would you mind doing CC(C(=O)Oc1ccc(C(N)=S)cc1)c1ccc(-c2ccccc2)c(F)c1 (stereo not given) as well?
Return: 0.52

Enquiry: Would you mind doing O=C(/C=C/c1ccccc1)Oc1ccc(-c2cc(=S)ss2)cc1 as well?
Return: 0.28

Enquiry: Would you mind doing NC(=S)c1ccc(OC(=O)c2ccccc2Cl)cc1 as well?
Return: 0.85

Enquiry: Would you mind doing COc1ccc2cc(C(C)C(=O)Oc3ccc(-c4cc(=S)ss4)cc3)ccc2c1 (stereo not given) as well?
Return: 0.49

Enquiry: Would you mind doing Oc1ccc(-c2cc(=S)ss2)cc1 as well?
Return: 0.59

###

experiment: Drug degradation in phosphate buffer assessed as H2S release by measuring test compound half life at 40 uM measured every 5 mins in presence of TECP by UV-Vis spectrometry; format: physicochemical
Label Condition met when half-life at 40 µM < 3 min; otherwise Condition not met.

Enquiry: Quick check: does CC(C)Cc1ccc(C(C)C(=O)Oc2ccc(-c3cc(=S)ss3)cc2)cc1 (stereo not given) have half-life at 40 µM under 3 min?
Return: Condition met

Enquiry: Would you mind doing NC(=S)c1ccc(OC(=O)/C=C/c2ccccc2)cc1 as well?
Return: Condition not met

Enquiry: Would you mind doing CC(C(=O)Oc1ccc(-c2cc(=S)ss2)cc1)c1cccc(C(=O)c2ccccc2)c1 (stereo not given) as well?
Return: Condition not met

Enquiry: Would you mind doing CC(C)Cc1ccc(C(C)C(=O)Oc2ccc(C(N)=S)cc2)cc1 (stereo not given) as well?
Return: Condition not met

Enquiry: Would you mind doing CC(C(=O)Oc1ccc(C(N)=S)cc1)c1cccc(C(=O)c2ccccc2)c1 (stereo not given) as well?
Return: Condition not met

###

molecular target: Nitric oxide synthase, inducible (Mus musculus); assay: Inhibition of iNOS in mouse RAW264.7 cells assessed as reduction in LPS-induced NO production administered for 24 hrs post LPS induction by Griess method; assay type: cell-based
readout: inhibition

Solved cases (4 shown):
CC(C)Cc1ccc(C(C)C(=O)Oc2ccc(C(N)=S)cc2)cc1 (stereo not given)	Dose-dependent effect
COc1ccc2c(c1)c(CC(=O)Oc1ccc(-c3cc(=S)ss3)cc1)c(C)n2C(=O)c1ccc(Cl)cc1	Dose-dependent effect
COc1ccc2cc(C(C)C(=O)Oc3ccc(C(N)=S)cc3)ccc2c1 (stereo not given) [ATB-346]	Dose-dependent effect
CC(C)Cc1ccc(C(C)C(=O)Oc2ccc(-c3cc(=S)ss3)cc2)cc1 (stereo not given)	Dose-dependent effect

Read the next record carefully.
Enquiry: Look at this compound and give its reported inhibition. CC(=O)Nc1ccc(OC(=O)CCCCC2CCSS2)cc1 (stereo not given)
Return: Dose-dependent effect

###

assay: Toxicity in AB zebrafish embryo assessed as percentage of embryos alive at 5 to 10 uM measured at 120 hrs post fertilization by dissecting light microscopic analysis relative to DMF; assay type: organism-based, Danio rerio; details: read-out: Activity
readout: survival at 120 h, up to 10 µM (%)
Reply numerically in %, unit not repeated.

Enquiry: Look at this compound and give its reported survival at 120 h, up to 10 µM. CC(C)Cc1ccc(C(C)C(=O)Oc2ccc(C(N)=S)cc2)cc1 (stereo unspecified)
Return: 60

###

experiment: Drug degradation in phosphate buffer assessed as H2S release by measuring test compound half life at 40 uM measured every 5 mins in presence of L-cysteine by UV-Vis spectrometry; format: physicochemical
Field: half-life at 40 µM. Provide a value for each of the compounds that follow.
Reply numerically in min, unit not repeated.

Enquiry: Look at this compound and give its reported half-life at 40 µM. O=C(O)CCCCC1CCSS1 (stereo not drawn)
Return: 118

Enquiry: Would you mind doing O=C(CCCCC1CCSS1)Oc1ccc2ccc(=O)oc2c1 (stereo not drawn) as well?
Return: 4.6

Enquiry: Would you mind doing CC(=O)Nc1ccc(OC(=O)CCCCC2CCSS2)cc1 (stereo not drawn) as well?
Return: 14.1

###

assay: Toxicity in AB zebrafish embryo assessed as percentage of embryos alive at 20 uM measured at 120 hrs post fertilization by dissecting light microscopic analysis relative to DMF; assay type: organism-based, Danio rerio; details: read-out: Activity
readout: survival at 120 h, 20 µM (%)
Reply numerically in %, unit not repeated.

Enquiry: Look at this compound and give its reported survival at 120 h, 20 µM. CC(=O)Nc1ccc(OC(=O)CCCCC2CCSS2)cc1 (stereo unspecified)
Return: 41

###

assay: Cytotoxicity against mouse RAW264.7 cells assessed as cell viability at 10 to 100 uM treated for 24 hrs in absence of LPS by MTT assay; type: cell-based; conditions: RAW264.7 cells, read-out: Activity
readout: viability at 24 h, up to 100 µM

Enquiry: Look at this compound and give its reported viability at 24 h, up to 100 µM. CC(C)Cc1ccc(C(C)C(=O)Oc2ccc(C(N)=S)cc2)cc1 (stereo not drawn)
Return: 70 to 110%

Enquiry: Would you mind doing CC(C)Cc1ccc(C(C)C(=O)Oc2ccc(-c3cc(=S)ss3)cc2)cc1 (stereo not drawn) as well?
Return: 70 to 110%

Enquiry: Would you mind doing COc1ccc2cc(C(C)C(=O)Oc3ccc(C(N)=S)cc3)ccc2c1 (stereo not drawn) as well?
Return: 70 to 110%
